systemTested: Serine/threonine-protein kinase BRSK1 (Homo sapiens)
Sequence (whole entry): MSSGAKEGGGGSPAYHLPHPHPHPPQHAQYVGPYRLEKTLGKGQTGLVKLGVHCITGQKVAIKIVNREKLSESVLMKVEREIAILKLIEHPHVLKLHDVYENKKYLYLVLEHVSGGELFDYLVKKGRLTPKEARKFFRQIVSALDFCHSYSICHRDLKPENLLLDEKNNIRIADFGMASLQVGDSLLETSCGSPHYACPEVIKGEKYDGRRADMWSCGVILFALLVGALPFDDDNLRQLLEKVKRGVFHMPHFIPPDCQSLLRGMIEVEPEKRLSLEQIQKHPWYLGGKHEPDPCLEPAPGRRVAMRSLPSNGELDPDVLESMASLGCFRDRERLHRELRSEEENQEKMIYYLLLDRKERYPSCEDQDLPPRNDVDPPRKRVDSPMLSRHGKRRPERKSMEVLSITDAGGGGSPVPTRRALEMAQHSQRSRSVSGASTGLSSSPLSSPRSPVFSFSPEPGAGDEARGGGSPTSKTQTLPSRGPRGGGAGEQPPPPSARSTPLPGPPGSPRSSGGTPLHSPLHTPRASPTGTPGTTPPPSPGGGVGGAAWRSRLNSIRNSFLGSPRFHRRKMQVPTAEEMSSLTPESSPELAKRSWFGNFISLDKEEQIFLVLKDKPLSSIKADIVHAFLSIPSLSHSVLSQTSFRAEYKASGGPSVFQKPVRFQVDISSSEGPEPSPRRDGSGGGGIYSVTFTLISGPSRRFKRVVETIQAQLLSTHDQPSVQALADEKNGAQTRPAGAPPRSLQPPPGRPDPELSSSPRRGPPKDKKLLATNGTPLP
measurementContext: at 10 µM
Kindly apply the following: Criterion met if residual activity is less than 60%, Criterion not met in every other case.

[[record]]
compound = "CC(C)n1cnc2c(NCc3ccccc3)nc(NCCCO)nc21"
labelvalue = "Criterion not met"

[[record]]
compound = "O=Nc1c(-c2c(O)[nH]c3ccccc23)[nH]c2ccccc12"
labelvalue = "Criterion met"

[[record]]
compound = "COc1ccc(OC)c2c(=S)c3ccccc3[nH]c12"
labelvalue = "Criterion not met"

[[record]]
compound = "CCN(CC)C(=O)c1ccc(Nc2nc(OCC3CCCCC3)c3nc[nH]c3n2)cc1"
labelvalue = "Criterion met"

[[record]]
compound = "O=C1NC(=O)c2cc(Nc3ccc(F)cc3)c(Nc3ccc(F)cc3)cc21"
labelvalue = "Criterion met"

[[record]]
compound = "O=C(Nc1cccc(Nc2nccc(Nc3cccc(C(F)(F)F)c3)n2)c1)C1CC1"
labelvalue = "Criterion met"

[[record]]
compound = "CCC(=O)Nc1ccc2ncnc(Nc3cccc(Br)c3)c2c1"
labelvalue = "Criterion met"

[[record]]
compound = "COc1ccc(C(=O)Nc2sc3c(c2C(N)=O)CCCC3)cc1OC"
labelvalue = "Criterion not met"

[[record]]
compound = "Cc1cccc(-c2[nH]c(C(C)(C)C)nc2-c2ccc3c(c2)OCO3)n1"
labelvalue = "Criterion not met"

[[record]]
compound = "O=c1cc(-c2cccc3c2Sc2ccccc2S3)oc(N2CCOCC2)c1"
labelvalue = "Criterion not met"

[[record]]
compound = "O=C(Nc1cccc(Nc2cc(Nc3cccc(C(F)(F)F)c3)ncn2)c1)C1CC1"
labelvalue = "Criterion met"

[[record]]
compound = "O=C1NC(=O)c2c1c1c3ccccc3[nH]c1c1[nH]c3cc(Br)ccc3c21"
labelvalue = "Criterion met"

[[record]]
compound = "Ic1cccc(CSc2nnc(-c3ccncc3)o2)c1"
labelvalue = "Criterion not met"

[[record]]
compound = "O=c1c2ccccc2[nH]c(=S)n1CCN1CCC(=C(c2ccc(F)cc2)c2ccc(F)cc2)CC1"
labelvalue = "Criterion not met"

[[record]]
compound = "O=C1Nc2ccccc2/C1=C1/Nc2ccccc2/C1=N\\OCCC(O)CO (stereo not drawn)"
labelvalue = "Criterion met"

[[record]]
compound = "COc1cccc(-c2cc(=O)c3ccccc3o2)c1N"
labelvalue = "Criterion not met"

[[record]]
compound = "COc1cc2ncnc(Nc3ccc(O)c(Br)c3)c2cc1OC"
labelvalue = "Criterion met"

[[record]]
compound = "Nc1ccc2ncnc(NCCc3ccc(Oc4ccccc4)cc3)c2c1"
labelvalue = "Criterion met"

[[record]]
compound = "Cn1cnc2cc3c(Nc4cccc(Br)c4)ncnc3cc21"
labelvalue = "Criterion met"

[[record]]
compound = "CC(=O)c1ccc(N2CCOCC2)cc1O"
labelvalue = "Criterion not met"

[[record]]
compound = "Nc1n[nH]c2nnc(-c3c(-c4ccccc4)nn4ccccc34)cc12"
labelvalue = "Criterion not met"

[[record]]
compound = "Cc1ccc(S(=O)(=O)/C=C/C#N)cc1"
labelvalue = "Criterion not met"

